quantity-kind: melting point

-- ask State the recorded melting point for this entry: CC(=O)NC(=O)CSC(C)=O
-- reply 140 to 142 °C

-- ask // repeat for CNC(=O)c1ccc(-c2ccc(NC(=O)NCc3cccnc3)cc2)nc1Nc1ccccc1 and report
-- reply 234 to 236 °C

-- ask Another compound to look at: CC(O)(C#Cc1ccc(S(=O)(=O)c2ccncc2)cc1)C(F)(F)F (stereo not given)
-- reply 122 to 125 °C

-- ask For CCN1C(=O)C(C)(C)C(=O)N(C)c2cc(CCN(CCn3cc(C)c4oc(C)cc4c3=O)Cc3cc(C)nn3C)ccc21 then?
-- reply 168 to 170 °C

-- ask Proceed to CC(C)(CO)NS(=O)(=O)c1cc(NC(=O)c2cnn3c(C(F)(F)F)cc(-c4ccc(C(F)(F)F)c(Cl)c4)nc23)c(Cl)s1
-- reply 254 °C

-- ask Consider next the compound CN1CC(c2cccc(Cl)c2)=C(c2ccc(S(C)(=O)=O)cc2)C1=O in the same way.
-- reply 170 to 172 °C

-- ask How about this compound: Nc1ccc(C2=Nn3ccnc3Cc3cc4c(cc32)OCO4)cc1
-- reply 264 to 265 °C

-- ask // same read-out, input: COc1ccc2c(c1)CCC1C3=CC(C)=C(OC(C)=O)C3(C)CCC21 (stereo not given)
-- reply 129 to 130 °C

-- ask Subsequent entry: CCOC(=O)c1ccc(NC(=O)c2ccc(OC)c(OC)c2)c2ccccc12
-- reply 144 to 146 °C

-- ask Then this compound: O=C(NC1CCC(c2cc(Nc3cccc(C(F)(F)F)c3)n[nH]2)C1)C1CCC1 (stereo not given)
-- reply 232 °C

-- ask Try CN1CCCNC1=C[N+](=O)[O-] next.
-- reply 114 to 115 °C

-- ask And then Cc1cc(C)c(CP(=O)(Cc2c(C)cc(C)cc2C)Cc2c(C)cc(C)cc2C)c(C)c1 , what is it?
-- reply 232 to 233 °C

-- ask Follow-up entry: Cc1nnc(-c2cc3c(-c4ccccc4Cl)coc3cn2)o1
-- reply 162 to 163 °C

-- ask Also check CCCN=C(N)Nc1ccnc(SC)n1
-- reply 177 to 178 °C

-- ask What would you report for CCc1nc2c(N3CCOCC3)ncn(CC)c-2n1 ?
-- reply 103 to 107 °C

-- ask Same for Cc1c(Cl)cc(C(C)(C)C)c(O)c1C(=O)Oc1ccccc1
-- reply 68 to 69 °C

Source of measurements: a melting point compilation (Tetko et al.; mined from patent text by program, amines drawn as free bases though some values may be those of a salt)
